target: human BRD4 bromodomain II (Homo sapiens, UniProt O60885); construct: human BRD4 bromodomain II [based on Genbank NM_058243, residues 349-460]; host or cells: E. coli; experiment: Bromodomain binding assay (AlphaScreen), BRD4 BDII; conditions: AlphaScreen assay, Table C2; read-out: BRD4 BDII IC50
pIC50: −log10 of the molar value.
OBSERVATION TYPE: pIC50

MOLECULE: Cn1ccn(-c2ccc(-c3cc(F)cc(-c4ccnc(N5CCNC(C(F)(F)F)C5)c4)c3O)cc2Cl)c1=O (stereo not drawn) [Example 454]
REPORTED MEASUREMENT: 8.00 to 9.00
//
MOLECULE: Cc1cc(-c2ccnc(N3CCN[C@H](C)C3)c2)c(O)c(-c2ccc(-n3ccn(C)c3=O)c(Cl)c2)c1 [Example 500]
REPORTED MEASUREMENT: 8.00 to 9.00
//
MOLECULE: CN1CCN(c2ccc(-c3cc(F)cc(-c4cnc(NCCO)c(N5CCNCC5)c4)c3O)cc2Cl)C1=O [Example 405]
REPORTED MEASUREMENT: 8.00 to 9.00
//
MOLECULE: Cn1ccn(-c2ccc(-c3cc(F)cc(-c4ccnc(N5CC[C@H](N6CCOCC6)C5)c4)c3O)cc2Cl)c1=O [Example 635]
REPORTED MEASUREMENT: 8.00 to 9.00
//
MOLECULE: Cn1ccn(-c2ccc(-c3cc(F)cc(-c4cc(-c5ccn[nH]5)nc(N5CCNCC5)c4)c3O)cc2Cl)c1=O [Example 553]
REPORTED MEASUREMENT: 8.00 to 9.00

Would you mind giving pIC50 for every molecule in the list below?
1. CN1CCCN(c2ccc(-c3cccc(-c4ccnc(N5CCNCC5)c4)c3O)cc2F)C1=O [Example 288]
2. Cn1ccn(-c2ccc(-c3cc(F)cc(-c4ccnc(N5CCN(C6COC6)CC5)c4)c3O)cc2Cl)c1=O [Example 528]

## Output
1: < 7.00; 2: 8.00 to 9.00

###

biological target: human BRD4 bromodomain II (Homo sapiens); construct: human BRD4 bromodomain II [based on Genbank NM_058243, residues 349-460]; host or cells: E. coli; assay: Bromodomain binding assay (AlphaScreen), BRD4 BDII; conditions: AlphaScreen assay, Table C2; read-out: BRD4 BDII IC50
OBSERVATION TYPE: IC50

STRUCTURE: Cn1ccn(-c2ccc(-c3cc(F)cc(-c4ccnc(N5CCN(C6CCOCC6)CC5)c4)c3O)cc2Cl)c1=O
REPORTED MEASUREMENT: 0.01 to 1 nM

STRUCTURE: CCN1CCN(c2ccc(-c3cccc(-c4ccnc(N5CCNCC5)c4)c3O)cc2Cl)C1=O
REPORTED MEASUREMENT: > 100 nM

STRUCTURE: CN1CCN(c2cncc(-c3cc(F)cc(-c4ccc(-n5ccn(C)c5=O)c(Cl)c4)c3O)c2)CC1
REPORTED MEASUREMENT: 0.01 to 1 nM

Please examine the following record next.
Item: CC(=O)Nc1ccc(-c2cccc(-c3cc(N4CCN(C(=O)c5ccccc5)CC4)no3)c2O)cc1 | IC50: > 100 nM

###

test system: human SKM-1 acute myeloid leukemia cells; assay: SKM-1 antiproliferation cell-based assay (ATPlite); conditions: Homo sapiens, SKM-1, 96 h, SKM-1 antiproliferation assay, 4 days, Table C2
OBSERVATION TYPE: GI50

COMPOUND: CN1CCN(c2cc(-c3cc(F)cc(-c4ccc(-n5ccn(C)c5=O)c(Cl)c4)c3O)ccn2)CC1 [Example 430]
GI50: 0.0003 to 0.03 µM
--
COMPOUND: CC1(C)CCN(c2ccc(-c3cccc(-c4ccnc(N5CCNCC5)c4)c3O)cc2Cl)C1=O [Example 329]
GI50: 0.3 to 3 µM
--
COMPOUND: Cn1ccn(-c2ccc(-c3cc(F)cc(-c4ccc(F)c(N5CC[C@@](C)(O)C5)c4)c3O)cc2Cl)c1=O [Example 775]
GI50: 0.03 to 0.3 µM
--
COMPOUND: Cn1ccn(-c2ccc(-c3cc(F)cc(-c4ccnc(N5CC[C@@H](C(N)=O)C5)c4)c3O)cc2Cl)c1=O [Example 761]
GI50: 0.03 to 0.3 µM
--
COMPOUND: Cn1ccn(-c2ccc(-c3cc(F)cc(-c4ccnc(N5CCC6(CCN6)C5)c4)c3O)cc2Cl)c1=O (stereo not shown) [Example 641]
GI50: 0.0003 to 0.03 µM

Record GI50 for all entries; do not skip any.
1. Cn1ccn(-c2ccc(-c3cc(F)cc(-c4cncc(N5C[C@@H](N)[C@H](O)C5)c4)c3O)cc2Cl)c1=O [Example 491]
2. O=C1N(c2ccc(-c3cccc(-c4ccnc(N5CCNCC5)c4)c3O)cc2Cl)CCC12CC2 [Example 341]

## Output
["0.03 to 0.3 µM", "0.3 to 3 µM"]
